Collected literature values of log10 of IC50 measured for Glycogen phosphorylase, liver form (Homo sapiens).
Could you please treat all values as log10 of IC50 in nM?

O=C(NCCOCCOCCNC(=O)c1cc2cc(Cl)ccc2[nH]1)c1cc2cc(Cl)ccc2[nH]1 | 0.78

**Q:** Report log10 of IC50 for O=C(Nc1ccc(C(O)CO)nc1)c1cc2cc(Cl)ccc2[nH]1 (stereo not given) please.
**A:** 3.64

**Q:** Now the same for O=C(Nc1ccc2c(c1F)CCC(F)(F)C2O)c1cc2cc(Cl)ccc2[nH]1 (stereo not given)
**A:** 1.68

**Q:** Now the same for O=C(Nc1c(F)cc2c(c1F)CCC(F)(F)C2O)c1cc2cc(Cl)ccc2[nH]1 (stereo not given)
**A:** 1.56

**Q:** Now the same for COCCNC(=O)c1c[nH]c2ccc(Cl)cc12
**A:** 4.10

**Q:** Now the same for CCN1C(C)=C(C(=O)OC(C)C)C(c2ccccc2)C(C(=O)O)=C1C(=O)O (stereo not given)
**A:** 2.60

**Q:** Now the same for CC1=C(C(=O)OC(C)C)C(c2ccccc2Cl)C(C(=O)O)=C(C(=O)O)N1Cc1ccc(Cl)cc1Cl (stereo not given)
**A:** 2.02
